Reference for the values: PubChem BioAssay (NCI)

- Test system: TK-10 renal
- test.summary: NCI tumour cell line growth inhibition, 48 h; in the data active means GI50 below about 0.43 µM; inactive means the rest
Labels: T (active), F (inactive)

INSERT INTO assay_data (compound, assigned_label) VALUES
  ('O=C(N/N=C/c1ccccc1O)c1ccccc1Nc1ccnc(C(F)(F)F)c1', 'F'),
  ('Cn1c2ccccc2c2c(-c3ccccc3)[n+]3ccncc3nc21', 'F'),
  ('CS(=O)(=O)c1ccc([C@H]2O[C@@H](CO)C[C@]2(O)c2ccc(S(C)(=O)=O)cc2)cc1', 'F'),
  ('Oc1c(CN2CCC(N3CCCCC3)CC2)cc(Cc2cc(CN3CCC(N4CCCCC4)CC3)c(O)c3ncccc23)c2cccnc12', 'F'),
  ('COc1cc(C2=NOC(c3cc(OC)c(OC)c(OC)c3)C2)ccc1OCCCCOc1cc2c(cc1OC)C(=O)N1CCC[C@H]1C=N2 (some centres undefined)', 'T'),
  ('Oc1ccc(CN2CCC(N3CCCCC3)CC2)c2cccnc12', 'F'),
  ('CCC[CH2][Sn]([CH2]CCC)([O]C(=O)c1cccnc1SC)[O]C(=O)c1cccnc1SC', 'F'),
  ('CC1=CC(=Nc2ccc(N(CCCl)CCCl)cc2)C=C(C)C1=O', 'F'),
  ('O=C(/C(Br)=C/c1ccccc1)c1ccccc1', 'F');

----------
- Test system: MDA-N
- test.summary: NCI tumour cell line growth inhibition, 48 h
Below: a set of entries, each annotated with reported TGI.
readout.kind: TGI

INSERT INTO measurements (compound, result) VALUES
  ('CC[C@@]1(O)C(=O)OCc2c1cc1n(c2=O)Cc2c-1nc1cc3c(cc1c2CCl)OCO3', '1.63 µM'),
  ('CCNC(=O)C1CCCN1C(=O)C(CCCN=C(N)N)NC(=O)C(CC(C)C)NC(=O)C(Cc1c[nH]c2ccccc12)NC(=O)C(Cc1ccc(O)cc1)NC(=O)C(CO)NC(=O)C(Cc1c[nH]c2ccccc12)NC(=O)C(Cc1cnc[nH]1)NC(=O)C1CCC(=O)N1 (configuration not stated)', '> 100 µM'),
  ('C[C@]12CC[C@H]3[C@@H](CC=C4C[C@@H](O)CC[C@@]43C)[C@@H]1CC[C@@H]2N(CCO)CCO', '> 100 µM'),
  ('Brc1cccc(N=NN2CCCC2)c1', '> 100 µM'),
  ('Cn1c(=O)c2[nH]c(SCc3ccccn3)nc2n(C)c1=S', '> 100 µM'),
  ('COc1ccc(-c2cc(=O)c3c(OC)c(OC)c(OC)cc3o2)cc1', '> 100 µM'),
  ('Cn1c2ccccc2n2c(=O)c3cc([N+](=O)[O-])ccc3c(C#N)c12', '> 100 µM'),
  ('O=[N+]([O-])c1ccc(NC(=S)N=Nc2c(O)[nH]c3ccc(Br)cc23)cc1', '23.5 µM'),
  ('O/N=C/C1c2ccccc2-c2ccccc21', '31.9 µM'),
  ('COCC1OC(N2C(=O)NC(=O)[C@@H]3C=C4CCCCC4=C[C@@H]32)C(OC)C1OC (some centres not stated)', '> 100 µM'),
  ('CCOC(=O)/C(C#N)=N\Nc1ccc(-n2c(C)nc3ccccc3c2=O)cc1', '> 100 µM'),
  ('CCC(C)c1c(Cl)nc(Cl)nc1Cl (configuration not stated)', '23.8 µM'),
  ('CSc1nc2c(c(=O)n1C)N=C(c1ccccc1)[C@H](C(CC(=O)c1ccccc1)c1ccccc1)C(c1ccccc1)N2 (some centres not stated)', '> 100 µM'),
  ('O=c1c(-c2ccc(Cl)cc2)nnc2n(Cc3ccccc3)c3ccccc3n12', '> 100 µM'),
  ('CCC(C(=O)c1ccc(OC)c(OC)c1)N(C(=O)C(F)(F)F)C(C)c1ccccc1 (configuration not stated)', '> 100 µM'),
  ('COc1cc2c(/C=C3/C(=O)Nc4ccccc43)c(Cl)[nH]c2cc1C', '0.0396 µM'),
  ('Nc1c(C(=O)c2ccc(Cl)cc2)[nH]c(NCc2ccccc2)c1C(=S)Nc1ccccc1', '3.32 µM');
